The molecules listed here are annotated with their pIC50.
TARGET_OR_SYSTEM: Polyunsaturated fatty acid 5-lipoxygenase (Homo sapiens, UniProt P09917)
Sequence (P09917 whole entry): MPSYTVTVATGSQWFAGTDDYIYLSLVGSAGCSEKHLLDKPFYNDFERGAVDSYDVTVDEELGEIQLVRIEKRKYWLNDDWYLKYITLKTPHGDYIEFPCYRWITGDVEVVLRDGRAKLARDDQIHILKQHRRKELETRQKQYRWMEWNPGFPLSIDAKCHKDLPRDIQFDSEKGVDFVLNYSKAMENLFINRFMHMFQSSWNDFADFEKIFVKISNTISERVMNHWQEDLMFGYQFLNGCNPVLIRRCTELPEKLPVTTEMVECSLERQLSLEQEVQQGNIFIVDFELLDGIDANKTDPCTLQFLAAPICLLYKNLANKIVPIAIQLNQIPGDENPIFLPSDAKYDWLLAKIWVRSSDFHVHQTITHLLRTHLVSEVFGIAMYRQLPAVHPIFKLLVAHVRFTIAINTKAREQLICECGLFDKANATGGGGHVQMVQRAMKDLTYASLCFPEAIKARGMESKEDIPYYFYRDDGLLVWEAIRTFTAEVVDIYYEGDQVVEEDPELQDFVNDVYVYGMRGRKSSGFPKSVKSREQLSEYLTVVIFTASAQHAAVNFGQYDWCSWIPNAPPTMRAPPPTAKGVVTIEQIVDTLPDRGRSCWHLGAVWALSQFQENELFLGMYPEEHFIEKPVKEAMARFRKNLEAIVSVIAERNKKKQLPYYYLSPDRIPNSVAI
TEST_NAME: Inhibition of human recombinant 5-LO expressed in Escherichia coli BL21 using arachidonic acid as substrate after 10 mins
pIC50: −log10 of the molar value.
ATTRIBUTE_MEASURED: pIC50

O=C1CC(=O)C(=O)C(CC2CCCCC2)C1=O ... < 5.00
COC1=CC(=O)C(=O)C(Cc2ccc3ccccc3c2)C1=O (centres undefined) ... < 5.00
O=C1C=C(Cc2ccccc2)C(=O)CC1=O ... < 5.00
COC1=CC(=O)C(=O)C(Cc2ccccc2)C1=O (centres undefined) ... < 5.00
